Test system: Escherichia coli
Assay: Activity of Escherichia coli UDP-galactopyranose mutase by HPLC
Reported kcat by item:
Enter your answer as a number in s⁻¹; do not include the unit.

Query string: kcat lookup needed for `O=c1ccn([C@@H]2O[C@H](COP(=O)(O)OP(=O)(O)O[C@H]3O[C@@H](CO)[C@H](O)[C@H]3O)[C@@H](O)[C@H]2O)c(=O)[nH]1` , thanks.
Result string: 12

Query string: Check `O=c1ccn([C@@H]2O[C@H](COP(=O)(O)OP(=O)(O)O[C@H]3O[C@@H]([C@@H](O)CO)[C@H](O)[C@H]3F)[C@@H](O)[C@H]2O)c(=O)[nH]1` too.
Result string: 0.033

Query string: Check `O=c1ccn([C@@H]2O[C@H](COP(=O)(O)OP(=O)(O)O[C@H]3O[C@@H]([C@@H](O)CO)[C@H](F)[C@H]3O)[C@@H](O)[C@H]2O)c(=O)[nH]1` too.
Result string: 5.7

Query string: Check `O=c1ccn([C@@H]2O[C@H](COP(=O)(O)OP(=O)(O)O[C@H]3O[C@@H]([C@@H](O)CF)[C@H](O)[C@H]3O)[C@@H](O)[C@H]2O)c(=O)[nH]1` too.
Result string: 7.4

Continuing:
Query string: kcat lookup needed for `O=c1ccn([C@@H]2O[C@H](COP(=O)(O)OP(=O)(O)O[C@H]3O[C@@H]([C@@H](O)CO)[C@H](O)[C@H]3O)[C@@H](O)[C@H]2O)c(=O)[nH]1` , thanks.
Result string: 27

---

Tested on: Escherichia coli
Assay: Ratio of Kcat to Km of Escherichia coli UDP-galactopyranose mutase
Parameters: unit not given here
Please note: Met applies when kcat/Km is 0.005 or greater, and Not met applies otherwise.

Query string: Is kcat/Km at least 0.005? Consider `O=c1ccn([C@@H]2O[C@H](COP(=O)(O)OP(=O)(O)O[C@H]3O[C@@H]([C@@H](O)CF)[C@H](O)[C@H]3O)[C@@H](O)[C@H]2O)c(=O)[nH]1`
Result string: Not met

Query string: Check `O=c1ccn([C@@H]2O[C@H](COP(=O)(O)OP(=O)(O)O[C@H]3O[C@@H](CO)[C@H](O)[C@H]3O)[C@@H](O)[C@H]2O)c(=O)[nH]1` too.
Result string: Met

Query string: Check `O=c1ccn([C@@H]2O[C@H](COP(=O)(O)OP(=O)(O)O[C@H]3O[C@@H]([C@@H](O)CO)[C@H](F)[C@H]3O)[C@@H](O)[C@H]2O)c(=O)[nH]1` too.
Result string: Met

Query string: Check `O=c1ccn([C@@H]2O[C@H](COP(=O)(O)OP(=O)(O)O[C@H]3O[C@@H]([C@@H](O)CO)[C@H](O)[C@H]3F)[C@@H](O)[C@H]2O)c(=O)[nH]1` too.
Result string: Not met

Continuing:
Query string: Is kcat/Km at least 0.005? Consider `O=c1ccn([C@@H]2O[C@H](COP(=O)(O)OP(=O)(O)O[C@H]3O[C@@H]([C@@H](O)CO)[C@H](O)[C@H]3O)[C@@H](O)[C@H]2O)c(=O)[nH]1`
Result string: Met

---

Test system: Escherichia coli
Experiment: Activity of Escherichia coli UDP-galactopyranose mutase by HPLC
# strict inequality: Km < 600 µM yields yes (1), everything else yields no (0)

Answered cases to consult:
Query string: Could you please tell me whether Km recorded for `O=c1ccn([C@@H]2O[C@H](COP(=O)(O)OP(=O)(O)O[C@H]3O[C@@H]([C@@H](O)CO)[C@H](O)[C@H]3F)[C@@H](O)[C@H]2O)c(=O)[nH]1` is less than 600 µM?
Result string: yes (1)

Query string: Check `O=c1ccn([C@@H]2O[C@H](COP(=O)(O)OP(=O)(O)O[C@H]3O[C@@H]([C@@H](O)CO)[C@H](F)[C@H]3O)[C@@H](O)[C@H]2O)c(=O)[nH]1` too.
Result string: no (0)

Query string: Check `O=c1ccn([C@@H]2O[C@H](COP(=O)(O)OP(=O)(O)O[C@H]3O[C@@H]([C@@H](O)CO)[C@H](O)[C@H]3O)[C@@H](O)[C@H]2O)c(=O)[nH]1` too.
Result string: yes (1)

Now consider the entry below.
Query string: Could you please tell me whether Km recorded for `O=c1ccn([C@@H]2O[C@H](COP(=O)(O)OP(=O)(O)O[C@H]3O[C@@H]([C@@H](O)CF)[C@H](O)[C@H]3O)[C@@H](O)[C@H]2O)c(=O)[nH]1` is less than 600 µM?
Result string: no (0)
